# Experiment Notes: LCMS analysis of DOTA-TCO-NHS linker immolation after Tz treatment in PBS (pH 7.4)
# Assay type: physicochemical
# Condition Context: PBS with tetrazine (Tz-amine) added; 100 μM DOTA linker treated with 10 mM Tz-amine, PBS pH 7.4, LCMS; read-out: kinetics of linker immolation T1/2
Recorded Metric: half-life at 100 μM (min)
Numbers only; they are read as min.

// half-life at 100 μM lookup, key: CN(CC(=O)NCCCNC(=O)CCOCCOCCOCCOCCC(=O)ON1C(=O)CCC1=O)C(=O)OC1/C=C/C(OC(=O)N(C)CC(=O)NCCCNC(=O)CN2CCN(CC(=O)O)CCN(CC(=O)O)CCN(CC(=O)O)CC2)CCCC1 (stereo not shown) [DOTA-TCO-NHS] 12
